# testedSystem: δOR (Homo sapiens)
# Construct: expressed in transfected cells; host or cells: HEK 293T cells, transient transfection, membrane preparation
# experiment: competitive radioligand binding with [3H]diprenorphine, membranes of transfected HEK 293T cells
measuredAttribute: pKi
Please report pKi as the negative decimal logarithm of the molar concentration, giving only the number.

Query: Recorded pKi for CN(C)[C@H](COC(=O)NCCc1ccsc1)Cc1ccc(O)cc1 [Comparative Example 1, reference compound] , please?
Result: 5.52

Query: Which pKi value is on record for CN(C)[C@H](CNC(=O)/N=N/c1ccccc1)Cc1ccc(O)cc1 [Comparative Example 3, reference compound] ?
Result: 6.20

Query: Which pKi is reported for this molecule? CN(C)[C@H](CNC(=O)/C=C/c1cccc(C(F)(F)F)c1)Cc1ccc(C(N)=O)cc1
Result: 7.26

Query: Would you mind telling me what pKi value was observed for CN(C)[C@H](CNC(=O)/C=C/c1ccc(F)c(C(F)(F)F)c1)Cc1ccc(O)cc1 ?
Result: 6.60

Query: # get_value(readout='pKi', item= Cc1cc(O)cc(C)c1C[C@H](N)CNC(=O)/C=C/c1ccccc1 )
Result: 6.29

Query: Consider the molecule CN(C)[C@H](CNC(=O)C=Cc1ccccc1)Cc1ccc(O)cc1 (stereo in doubt) and give its measured pKi.
Result: 7.60

Let us move to another entry and its pKi.
Query: Tell me the measured pKi of CN(C)[C@H](CNC(=O)/C=C/c1cccc(C(F)(F)F)c1)Cc1ccc(O)cc1 , please.
Result: 6.92

* * *

# testedSystem: δOR (Homo sapiens, UniProt P41143)
# Construct: expressed in transfected cells; host or cells: HEK 293T cells, transient transfection, membrane preparation
# experiment: competitive radioligand binding with [3H]diprenorphine, membranes of transfected HEK 293T cells
# conditionContext: radioligand [3H]diprenorphine; number in brackets = number of experiments; read-out: mean Ki value δOR
measuredAttribute: pKi
API: returns pKi as number; meaning -log10 of concentration in mol/L.

Query: For the compound CN(C)[C@H](CNC(=O)/C=C/c1ccc(C(F)(F)F)cc1)Cc1ccc(O)cc1 , what pKi is on record?
Result: 5.96

Query: Find the recorded pKi belonging to Cc1cccc(/C=C/C(=O)NC[C@H](Cc2ccc(O)cc2)N(C)C)c1 and report it.
Result: 6.52

Query: Reported pKi, compound C/C(=C\C(=O)NC[C@H](Cc1ccc(O)cc1)N(C)C)c1ccccc1 : ____
Result: 6.92

Query: Record request: pKi value, item CN(C)[C@H](CNC(=O)/C=C/c1ccccc1C(F)(F)F)Cc1ccc(O)cc1
Result: 6.74

For the next question, use this compound.
Query: Value lookup for pKi; key = CN(C)[C@H](CNC(=O)C#Cc1ccccc1)Cc1ccc(O)cc1
Result: 6.85

* * *

# testedSystem: µOR (Homo sapiens)
# experiment: competitive radioligand binding with [3H]diprenorphine, membranes of transfected HEK 293T cells
# Design: expressed in transfected cells; host or cells: HEK 293T cells, transient transfection, membrane preparation
Readings of pKi for the listed compounds
Schema: pKi number; meaning minus log10 of the concentration expressed in molar units.

Worked cases, pKi given:
Query: Quick one: pKi of CN[C@H](CNC(=O)/C=C/c1cccc(C(F)(F)F)c1)Cc1c(C)cc(O)cc1C ?
Result: 7.92

Query: Sample CN(C)[C@H](CNC(=O)/C=C/c1ccsc1)Cc1ccc(O)cc1 — what was its pKi?
Result: 8.07

Query: Fill blank: measured pKi of the compound CN(C)[C@H](COC(=O)NCCc1ccsc1)Cc1ccc(O)cc1 [Comparative Example 1, reference compound] is ____.
Result: 5.62

Now examine the next entry.
Query: Looking for the measured pKi of CN(C)[C@H](CNC(=O)/C=C/c1ccc(F)c(C(F)(F)F)c1)Cc1ccc(O)cc1 , can you help?
Result: 7.64

* * *

# testedSystem: µOR (Homo sapiens)
# experiment: competitive radioligand binding with [3H]diprenorphine, membranes of transfected HEK 293T cells
# Design: expressed in transfected cells; host or cells: HEK 293T cells, transient transfection, membrane preparation
measuredAttribute: log10 of Ki (log10 of the value in nM)
Give log10 of Ki, with Ki taken in nM.

Query: Entry under review: Cc1cc(O)cc(C)c1C[C@H](N)CNC(=O)/C=C/c1cccc(C(F)(F)F)c1 . Reported log10 of Ki?
Result: 1.28

Query: log10 of Ki; subject: CN(C)[C@H](CNC(=O)C#Cc1ccccc1)Cc1ccc(O)cc1
Result: 1.26

Query: Which log10 of Ki is reported for this compound? NC(=O)c1ccc(C[C@H](N)CNC(=O)/C=C/c2cccc(C(F)(F)F)c2)cc1
Result: 2.66

Query: # log10 of Ki lookup, item CN(C)[C@H](CNC(=O)/N=N/c1ccccc1)Cc1ccc(O)cc1 [Comparative Example 3, reference compound]
Result: 1.82

Query: Consider the compound shown here: CN(C)[C@H](CNC(=O)/C=C/c1cccc(C(F)(F)F)c1)Cc1ccc(O)cc1 What is its recorded log10 of Ki?
Result: 1.48

Next:
Query: Item under review: CN(C)[C@](C)(CNC(=O)C=Cc1ccccc1)Cc1ccc(O)cc1 (stereo in doubt) . Reported log10 of Ki?
Result: 2.49

* * *

# testedSystem: µOR (Homo sapiens, UniProt P35372)
# experiment: G-protein mediated signaling, IP1 accumulation assay (HTRF) in HEK-293T cells with hybrid G-protein Gαqi
# Type: cell-based
# Parameters: expressed in transfected cells; host or cells: HEK-293T cells, transient transfection
# conditionContext: HEK-293T, read-out: G-protein signaling Emax
measuredAttribute: Emax (%)
Response body: numeric value in %, unit text excluded.

See these solved cases before continuing.
Query: I would be grateful if you could share the reported Emax for CN(C)[C@H](CNC(=O)C=Cc1ccccc1)Cc1ccc(O)cc1 (stereo in doubt) [Example 1] .
Result: 63

Query: Entry under review: CN(C)[C@H](CNC(=O)/C=C/c1ccc(C(F)(F)F)cc1)Cc1ccc(O)cc1 [Example 9] . Reported Emax?
Result: 92

Query: Fill in the blank: the reported Emax of CN(C)[C@H](CNC(=O)/C=C/c1ccsc1)Cc1ccc(O)cc1 [Example 19] is ____.
Result: 53

More entries:
Query: What value of measured Emax is listed for CN(C)[C@H](CNC(=O)C#Cc1ccccc1)Cc1ccc(O)cc1 [Example 2] ?
Result: 42

Query: # get_value(readout='Emax', item= CN(C)[C@H](CNC(=O)/C=C/c1cccc2ccccc12)Cc1ccc(C(N)=O)cc1 [Example 18] )
Result: 92

* * *

# testedSystem: µOR (Homo sapiens)
# experiment: β-arrestin-2 recruitment, enzyme-fragment complementation assay in HEK-293 cells
# Type: cell-based
# Design: expressed in transfected cells; host or cells: HEK-293 cells stably expressing EA-tagged β-arrestin-2, transiently transfected with µOR-PK1
Some compounds, each annotated with its measured EC50.
Entry rule: numbers only, all in nM.

Query: Fill in the blank: the reported EC50 of CN(C)[C@H](CNC(=O)/C=C/c1cccc2ccccc12)Cc1ccc(C(N)=O)cc1 is ____.
Result: 120

Continuing:
Query: What does the record list as EC50 for CN(C)[C@H](CNC(=O)/C=C/c1cccc(C(F)(F)F)c1)Cc1ccc(C(N)=O)cc1 ?
Result: 130

* * *

Each record here notes measured Ki.
# testedSystem: κOR (Homo sapiens, UniProt P41145)
# Construct: expressed in transfected cells; host or cells: HEK 293T cells, transient transfection, membrane preparation
# experiment: competitive radioligand binding with [3H]diprenorphine, membranes of transfected HEK 293T cells
Express your answer in nM, writing the number without its unit.

See these solved cases before continuing.
Query: So what Ki did NC(=O)c1ccc(C[C@H](N)CNC(=O)/C=C/c2cccc(C(F)(F)F)c2)cc1 get with κOR (Homo sapiens, UniProt P41145)?
Result: 5600

Query: Under κOR (Homo sapiens, UniProt P41145): Ki value of CN(C)[C@H](CNC(=O)/C=C/c1cccc(C(F)(F)F)c1)Cc1ccc(O)cc1 ?
Result: 580

Query: Item Cc1cc(O)cc(C)c1C[C@H](N)CNC(=O)/C=C/c1cccc(C(F)(F)F)c1 with κOR (Homo sapiens, UniProt P41145) - Ki?
Result: 220

Query: Fill in the recorded Ki for this compound, with κOR (Homo sapiens, UniProt P41145) as test system: CN(C)[C@H](CNC(=O)/N=N/c1ccccc1)Cc1ccc(O)cc1 [Comparative Example 3, reference compound]
Result: 540

Query: Reported Ki for κOR (Homo sapiens, UniProt P41145), given CN(C)[C@H](CNC(=O)/C=C/c1cccc(C(F)(F)F)c1)Cc1ccc(C(N)=O)cc1 ?
Result: 450

***
Query: Form entry - test system: κOR (Homo sapiens, UniProt P41145); read-out: Ki; compound: CN(C)[C@H](CNC(=O)/C=C/c1cccc2ccccc12)Cc1ccc(O)cc1
Result: 180

Query: Record lookup: for κOR (Homo sapiens, UniProt P41145), what Ki belongs to CN(C)[C@H](CNC(=O)/C=C/c1ccc(F)c(C(F)(F)F)c1)Cc1ccc(O)cc1 ?
Result: 600

Query: Record CN(C)[C@H](CNC(=O)/C=C/c1cccc2ccccc12)Cc1ccc(C(N)=O)cc1 : what is its Ki with κOR (Homo sapiens, UniProt P41145)?
Result: 200

Query: Notebook entry, κOR (Homo sapiens, UniProt P41145) assay: Ki of CN(C)[C@H](COC(=O)NCCc1ccsc1)Cc1ccc(O)cc1 [Comparative Example 1, reference compound] = ?
Result: 3300
